- tested-target: T1, M. jannaschii Adriase S1A mutant with C-terminal His-tag (Methanocaldococcus jannaschii, UniProt Q57968 3-293)
- T1 construct: The entry is the S1A mutant itself
- T1 sequence: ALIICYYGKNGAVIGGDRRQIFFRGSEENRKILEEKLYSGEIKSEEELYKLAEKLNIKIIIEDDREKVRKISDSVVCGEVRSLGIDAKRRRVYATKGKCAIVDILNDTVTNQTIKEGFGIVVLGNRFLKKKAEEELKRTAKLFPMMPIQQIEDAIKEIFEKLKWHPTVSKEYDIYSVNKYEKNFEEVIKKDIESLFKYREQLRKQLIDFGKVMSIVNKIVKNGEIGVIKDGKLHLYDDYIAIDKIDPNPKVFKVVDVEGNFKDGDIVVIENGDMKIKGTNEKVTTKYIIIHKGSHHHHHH
- protocol-text: microscale thermophoresis (MST); table row (0)KDPGA(10)
Ends that are not written are not given here.
endpoint-label: Kd (nM)
Answers are plain numbers, in nM.

[in] Param item = KDPGAIDEDPFIIEL-{K(FITC)} (Synthetic peptide (Genscript)) [(0)KDPGA(10) peptide, M. jannaschii MtrA-derived, C-terminal FITC] ; retrieve measured Kd.
[out] 363
